meta.source: patent US11512053B2

Biological target: full-length human PRMT1 isoform 1 (GST-tagged) (Homo sapiens)
Sequence (Q99873 with tags, fused parts or gaps): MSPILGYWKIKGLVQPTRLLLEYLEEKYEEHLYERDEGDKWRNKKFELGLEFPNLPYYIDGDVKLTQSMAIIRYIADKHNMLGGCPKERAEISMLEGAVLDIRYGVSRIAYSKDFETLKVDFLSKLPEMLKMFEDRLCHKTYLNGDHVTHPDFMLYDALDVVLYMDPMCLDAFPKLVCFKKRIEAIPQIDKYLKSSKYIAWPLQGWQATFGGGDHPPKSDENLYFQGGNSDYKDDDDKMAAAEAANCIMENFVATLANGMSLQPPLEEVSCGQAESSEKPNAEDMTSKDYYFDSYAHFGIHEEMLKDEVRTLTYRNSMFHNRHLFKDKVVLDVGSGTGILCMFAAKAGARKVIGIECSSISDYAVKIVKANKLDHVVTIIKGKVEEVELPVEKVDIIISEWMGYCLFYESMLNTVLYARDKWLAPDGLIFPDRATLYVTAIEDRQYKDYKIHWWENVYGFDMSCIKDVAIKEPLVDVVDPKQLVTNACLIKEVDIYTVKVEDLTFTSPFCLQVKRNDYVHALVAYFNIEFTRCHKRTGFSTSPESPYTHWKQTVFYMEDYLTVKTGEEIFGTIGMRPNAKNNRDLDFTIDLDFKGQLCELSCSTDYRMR
Experiment: PRMT1 Biochemical Assay (3H-SAM Flashplate, peptide substrate)
Structures can show the parent of a compound that is named as a salt.
observed.property: IC50

The compound listed as CNCCN(C)Cc1c[nH]nc1[C@H]1CC[C@@H](N(CC(C)C)C(=O)CCOc2ccccc2)CC1 shows IC50 equal to < 100 nM

The compound listed as CNCCN(C)Cc1c[nH]nc1[C@H]1CC[C@@]2(CCN(Cc3ccccc3)C2=O)CC1 shows IC50 equal to < 100 nM

The compound listed as CNCCN(C)Cc1c[nH]nc1C1CCC2(CCOCC2)CC1 shows IC50 equal to < 100 nM

The compound listed as CNCCN(C)Cc1c[nH]nc1C1CCC(C)(C)CC1 shows IC50 equal to < 100 nM

The compound listed as CNCCN(C)Cc1c[nH]nc1C1CCC2(CC1)CCN(CCC(C)C)C2=O (stereo not drawn) shows IC50 equal to < 100 nM

The compound listed as CNCCN(C)Cc1c[nH]nc1C1CCC(C)(C)C(O)C1 (stereo not drawn) shows IC50 equal to < 100 nM

The compound listed as CNCCN(C)Cc1c[nH]nc1C1CCC(C)(C)[C@H](C(=O)NCCOC)C1 (stereo partly drawn) shows IC50 equal to < 100 nM

The compound listed as CNCCN(C)Cc1c[nH]nc1[C@H]1CC[C@@H](N(CCCOC)C(=O)CCC(C)C)CC1 shows IC50 equal to < 100 nM

The compound listed as CNCCN(C)Cc1c[nH]nc1[C@H]1CC[C@@H](O)CC1 [Compound 217, trifluoroacetate] shows IC50 equal to < 100 nM
